Catalogue of Activity of soybean GST enzyme, 1,2-epoxy-3-(p-nitrophenoxy)propane values
EXPERIMENTAL_PROTOCOL: GST conjugation activity with 1,2-epoxy-3-(p-nitrophenoxy)propane (HPLC)
Assay type: biochemical
RUN_CONDITIONS: 0.4 mM electrophilic substrate, 4 mM glutathione, 0.1 M MOPS pH 7.0, corrected for uncatalyzed reaction
Number only, in nmol/min/mg; omit the unit.

INSERT INTO results (molecule, unit_label, numeric_result) VALUES
  ('ssl.pk0020.b10: soybean type III GST encoded by cDNA insert in clone ss1.pk0020.b10 (protein) MAEQDKVILHGMWASPYAKRVELALNFKGIPYEYVEEDLRNKSDLLLKYNPVHKKVPVLVHNGKAIAESMVILEYIDETWKDGPKLLPSDSYKRAQARFWCHFIQDQLMESTFLVVKTDGEAQQKAIDHVYEKLKVLEDGMKTYLGEGNAIISGVENNFGILDIVFCALYGAYKAHEEVIGLKFIVPEKFPVLFSWLMAIAEVEAVKIATPPHEKTVGILQLFRLSALKSSSATE', 'nmol/min/mg', 47);

// switching to the query molecule
**Q:** Look up Activity of soybean GST enzyme, 1,2-epoxy-3-(p-nitrophenoxy)propane: ssm.pk0026.g11: soybean type II GST encoded by cDNA insert in clone ssm.pk0026.g11 (protein) MASASVGKELTLYSYWRSSCSHRVRIALNLKGLKYEYKPVNLLKGEQSRPEFLQLNPVGCVPVLVDDHVVLYDSFAIIMYLEDKYPHNPLLPHDIYKRAINFQAASVVSSTIQPLHNLSLLNYIGEKVGPDEKLPWAQSIIRRGFKALEKLLKDHTGRYATGDEVFLADIFLAPQLHAAFKRFNIHMNEFPILARLHETYNEIPAFQEALPENQPDAVH
**A:** 2
